# System: L1210
# method.description: Antitumor activity against mouse L1210 cells […] in ip dosed C3H X DBA2 F1 hybrid mouse on day 0 and dosed once daily on days 1 to 5 assessed as increase in life span relative to control
# Assay type: functional
observable: D40 (mg/kg)
One number for each entry, in mg/kg.

For orientation, consider the following solved cases.
CC[n+]1cccc(NC(=O)c2ccc(NC(=O)c3cccc(C(=O)Nc4ccc(C(=O)Nc5ccc[n+](CC)c5)cc4)c3)cc2)c1.Cc1ccc(S(=O)(=O)[O-])cc1.Cc1ccc(S(=O)(=O)[O-])cc1; 12
CCC[n+]1ccc(Nc2ccc(NC(=O)/C=C/c3ccc(/C=C/C(=O)Nc4ccc(Nc5cc[n+](CCC)cc5)cc4)cc3)cc2)cc1.[Br-].[Br-]; 13
COc1cc(NC(=O)c2ccc(Nc3cc[n+](C)cc3)cc2)ccc1Nc1cc[n+](C)c2cc(N)ccc12.[Br-].[Br-]; 3
CCC[n+]1cccc(NC(=O)c2ccc(NC(=O)c3ccc(C(=O)Nc4ccc(C(=O)Nc5ccc[n+](CCC)c5)c(OC)c4)cc3)cc2OC)c1.Cc1ccc(S(=O)(=O)[O-])cc1.Cc1ccc(S(=O)(=O)[O-])cc1; 22
C[n+]1ccc(Nc2ccc(NC(=O)c3ccc(Nc4cc[n+](C)c5ccc(N)cc45)cc3N)cc2)cc1.[I-].[I-]; 2.9
C/C(=N\NC(=N)N)c1ccc(NC(=O)c2ccc(Nc3cc[n+](C)c4cc([N+](=O)[O-])ccc34)cc2)cc1.Cl.[Cl-]; 5.9
CCCC[n+]1cccc2cc(NC(=O)c3ccc(C(=O)Nc4ccc5c(ccc[n+]5CCCC)c4)cc3)ccc21.Cc1ccc(S(=O)(=O)[O-])cc1.Cc1ccc(S(=O)(=O)[O-])cc1; 25
CCC[n+]1cccc(NC(=O)c2ccc(NC(=O)c3ccc(C(=O)Nc4ccc(C(=O)Nc5ccc[n+](CCC)c5)c(N)c4)c(N)c3)cc2N)c1.Cc1ccc(S(=O)(=O)[O-])cc1.Cc1ccc(S(=O)(=O)[O-])cc1; 2.2
CCCCC[n+]1cccc2cc(NC(=O)c3ccc(C(=O)Nc4ccc5c(ccc[n+]5CCCCC)c4)c(N)c3)ccc21.Cc1ccc(S(=O)(=O)[O-])cc1.Cc1ccc(S(=O)(=O)[O-])cc1; 15
C[n+]1ccc(Nc2ccc(NC(=O)c3ccc(Nc4cc[n+](C)c5ccccc45)cc3N)cc2N)cc1.[I-].[I-]; 15

Provide the reported D40 of each entry below, same order.
1. C[n+]1ccc(Nc2ccc(NC(=O)c3ccc(-c4ccc(Nc5cc[n+](C)cc5)cc4)cc3)cc2)cc1.[I-].[I-]
2. C[n+]1ccc(Nc2ccc(C(=O)Nc3ccc(Nc4cc[n+](C)c5ccccc45)cc3)cc2)cc1.Cc1ccc(S(=O)(=O)[O-])cc1.Cc1ccc(S(=O)(=O)[O-])cc1
3. CCC[n+]1cc(-c2ccc(NC(=O)c3ccc(C(=O)Nc4ccc(-c5c[n+](CCC)c(N)nc5N)cc4)cc3)cc2)c(N)nc1N.Cc1ccc(S(=O)(=O)[O-])cc1.Cc1ccc(S(=O)(=O)[O-])cc1
4. COc1cccc2c(Nc3ccc(C(=O)Nc4ccc(Nc5cc[n+](C)cc5)cc4)cc3)cc[n+](C)c12.[Br-].[Br-]
5. CC[n+]1cccc(NC(=O)c2ccc(NC(=O)c3ccc(C(=O)Nc4ccc(C(=O)Nc5ccc[n+](CC)c5)c(N)c4)cc3)cc2N)c1.Cc1ccc(S(=O)(=O)[O-])cc1.Cc1ccc(S(=O)(=O)[O-])cc1

Output:
[0.6, 2.2, 7, 0.3, 3.2]
